B1: KRT71 (parent)
chain: FGSRSLYSLGGVRSLNVASGSGKS

variants of: B1; experiment: protein stability index of a GFP-peptide fusion (GPS, HEK-293T) (PSI 1-6); higher = more stable; conditions: c terminus: a fixed tail appended;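 also: lentivirally expressed fusions sorted by FACS into six bins by GFP to DsRed ratio, PSI derived from sequencing read proportions per bin multiplied by bin number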
Would you please tag the item T when its protein stability index is 2 or above, and F when it is below?

Completed entries (count: 3):
residue-change | assigned-class
S24V | F
V17P | F
V12Q | T

Reported protein stability index at or above 2? `R13D`
T

Reported protein stability index at or above 2? `S19Y`
F

Reported protein stability index at or above 2? `N16G`
F

Reported protein stability index at or above 2? `S8P`
F

Reported protein stability index at or above 2? `S19I`
F

Reported protein stability index at or above 2? `S24Y`
F

Reported protein stability index at or above 2? `F1T`
T

Reported protein stability index at or above 2? `Y7R`
T
